The following compounds are shown together with reported LD50 values.
Experiment Description: Acute toxicity by oral route in mice (LD50)
Format: in vivo
Condition Label: mouse, in vivo, gummy suspension
Property: LD50

>>> df
                                   compound  property        result
0             CSc1ccc(-c2cc3ccccc3[nH]2)cc1      LD50  > 3000 mg/kg
1  Oc1ccc(-c2cc3ccccc3[nH]2)cc1 [Stabilizer 20, 2-(4'-hydroxy-phenyl)-indole]      LD50  > 3000 mg/kg
2  CCOC(=O)C(C)(C)Oc1ccc(-c2cc3ccccc3[nH]2)cc1      LD50  > 3000 mg/kg
3        CC(=O)Oc1ccc(-c2cc3ccccc3[nH]2)cc1      LD50  > 3000 mg/kg
4  CCCCCCCCCCCCOc1ccc(-c2cc3ccccc3[nH]2)cc1      LD50  > 5000 mg/kg
5              Sc1ccc(-c2cc3ccccc3[nH]2)cc1      LD50  > 2000 mg/kg
6  O=C(Oc1ccc(-c2cc3ccccc3[nH]2)cc1)c1ccccc1      LD50  > 4000 mg/kg

----------
Experiment Description: Acute toxicity by oral route in mice (LD50)
Type: in vivo
Condition Label: mouse, in vivo, gummy suspension
Property: LD50

                                   compound  property        result
0  CCCCC(CC)COc1ccc(-c2cc3ccccc3[nH]2)cc1 (stereo not drawn) [Stabilizer 7, 2-(2"-ethyl-4'-hexyloxy-phenyl)-indole]      LD50  > 2000 mg/kg
1  Nc1ccccc1-c1cc2ccccc2[nH]1 [Stabilizer 23, 2-(2'-amino-phenyl)-indole]      LD50  > 2000 mg/kg
2  c1ccc(-c2cc3ccccc3[nH]2)cc1 [2-phenyl-indole]      LD50  > 3000 mg/kg

----------
Experiment Description: Static thermostability of stabilized resin, simplified method (GARDNER sub-scale), Compound A
Condition Label: 210° C, 6 min
Property: Colouration of sheet (GARDNER sub-scale) (GARDNER degrees)

>>> print(df.to_string())
                                    compound  measured_number
 0  CC(C)Sc1ccc(-c2cc3ccccc3[nH]2)cc1 [Stabilizer 17, 2-(4'-isopropylthio-phenyl)-indole]                2
 1  CCCCSc1ccc(-c2cc3ccccc3[nH]2)cc1 [Stabilizer 15, 2-(4'-butylthio-phenyl)-indole]                2
 2  Nc1ccc(-c2cc3ccccc3[nH]2)cc1 [Stabilizer 22, 2-(4'-amino-phenyl)-indole]                3
 3  Nc1cccc(-c2cc3ccccc3[nH]2)c1 [Stabilizer 11, 2-(3'-amino-phenyl)-indole]                4
 4  CCOC(=O)COc1ccc(-c2cc3ccccc3[nH]2)cc1 [Stabilizer 13, 2-(4'-carbethoxymethoxy-phenyl)-indole]                3
 5  O=C(O)COc1ccc(-c2cc3ccccc3[nH]2)cc1 [Stabilizer 12, 2-(4'-carboxymethoxy-phenyl)-indole]                3
 6  Oc1ccc(-c2cc3ccccc3[nH]2)cc1 [Stabilizer 20, 2-(4'-hydroxy-phenyl)-indole]                2
 7  O=C(Nc1ccccc1-c1cc2ccccc2[nH]1)c1ccccc1 [Stabilizer 25, 2-(2'-N-benzoylamino-phenyl)-indole]                4
 8  CC(=O)Nc1ccc(-c2cc3ccccc3[nH]2)cc1 [Stabilizer 14, 2-(4'-N-acetylamino-phenyl)-indole]                3
 9  c1ccc(-c2ccc(-c3cc4ccccc4[nH]3)cc2)cc1 [Stabilizer 26, 2(4'-phenyl-phenyl)-indole]                3
10  Sc1ccc(-c2cc3ccccc3[nH]2)cc1 [Stabilizer 1, 2-(4'-mercapto-phenyl)-indole]              2.5
11  CSc1ccc(-c2cc3ccccc3[nH]2)cc1 [Stabilizer 3, 2-(4'-methylthio-phenyl)-indole]                2
12  CCCCCCCCCCCCSc1ccc(-c2cc3ccccc3[nH]2)cc1 [Stabilizer 16, 2-(4'-n-dodecylthio-phenyl)-indole]                2
